System: CAKI-1 renal
testName: NCI-60 one-dose screen, 48 h (100 = growth as untreated, 0 = no growth, -100 = all killed)
condition: 10 µM unless noted
Compounds without any hit were thinned out: in the full panel of roughly 83,000, 20% have a hit. Active and inactive are the calls of the source. The calls were made as follows: active = growth percent below 10; inactive = the rest.
measureName: growth

* O=C(CN1C(=O)S/C(=C\C(Cl)=C\c2ccccc2)C1=O)NCCc1ccc(O)cc1 | 39.3% (inactive)
* COc1cc2ncnc(Nc3ccc(S(=O)(=O)Nc4cc(C)on4)cc3)c2cc1OCCCN1CCN(c2ccc(F)cc2)CC1 | 87.7% (inactive)
* O=C(/C=C/c1cccc(Cl)c1)c1ccc(Nc2nc(Nc3ccc(F)cc3)nc(Nc3ccc(Cl)cc3)n2)cc1 | 112% (inactive)
* CCCC/C(CC)=N\NS(=O)(=O)c1ccc([N+](=O)[O-])cc1 | 96.9% (inactive)
* O=C(Nc1cccc(-c2ccc(N3CCOCC3)nn2)c1)Nc1cccc(C(F)(F)F)c1 | 87.9% (inactive)
* O=C(Nc1ccc(Oc2cccc(F)c2)c(Cl)c1)c1cccnc1 | 32.5% (inactive)
* O=S(=O)(NCCNc1nccc(-c2c(-c3ccc(F)c(O)c3)nc3occn23)n1)c1ccc(Cl)cc1 | 92.7% (inactive)
* O=C(c1ccncc1)N1N=C(c2ccc(Cl)cc2)C[C@H]1c1cn(-c2ccccc2)nc1-c1ccccc1 | 65.4% (inactive)
* COc1ccc(C/C(C)=C(\c2ccc(Cl)cc2)c2ccc(OCCN3CCCCC3)cc2)cc1 | 86.9% (inactive)
* Nc1cc(C(=O)NC[C@H]2CN(c3ccc(N4CCC(C(=O)O)CC4)cc3)C(=O)O2)ccc1Cl | 87.7% (inactive)
* Nc1ncnc2c1c(-c1cccc(Cl)c1)nn2CC(=O)N1CCOCC1 | 91.8% (inactive)
* C=CCSc1nnc(NC(=O)CCl)s1 | 93.3% (inactive)
* COc1ccc(C2CC(c3ccc(Nc4nc(Nc5ccccc5)nc(Nc5ccccc5)n4)cc3)=NN2C(C)=O)cc1 (centres undefined) | 105% (inactive)
* CN(C)c1ccc(C(=O)OCCCCCCl)cc1 | 89.1% (inactive)
* COc1cc(-c2csc(NC(=O)c3ccc(N4CCOCC4)c(C(F)(F)F)c3)n2)cc(OC)c1OC | 36.4% (inactive)
* CSc1nc(N)c(NS(=O)(=O)c2ccc(C(C)=O)cc2)c(=O)[nH]1 | 90.1% (inactive)
* COc1ccc(NC2=C(I)C(=O)c3ncccc3C2=O)cc1 | 24.1% (inactive)
* COC(=O)C1Cc2ccccc2CN1C(=O)c1ccc2c(c1)Cc1ccccc1-2 (centres undefined) | 28.7% [50 µM] (inactive)
* Nc1n[nH]c2ccc([C@H]3[C@@H]4C5CCC(C5)[C@@H]4c4c(ccc5[nH]ncc45)N3S(=O)(=O)C3CC3)cc12 (some centres undefined) | 26.2% (inactive)

====

System: A549/ATCC NSCLC
testName: NCI-60 one-dose screen, 48 h
condition: 10 µM unless noted
Compounds without any hit were thinned out: in the full panel of roughly 83,000, 20% have a hit. Active and inactive are the calls of the source. Rule for the calls: active = growth percent below 10; inactive = the rest.
Labels: label 1 for active, label 0 for inactive

• COc1cc(C2CC(c3ccc(Nc4nc(Nc5ccc(Cl)cc5)nc(Nc5ccc(Cl)cc5)n4)cc3)=NN2C(C)=O)cc(OC)c1OC (centres undefined) = label 0
• CCSc1oc(-c2ccccc2)nc1[P+](c1ccccc1)(c1ccccc1)c1ccccc1 = label 1
• O=C(CSc1nc2ccc([N+](=O)[O-])cc2[nH]1)Nc1ccc([N+](=O)[O-])cc1 = label 0
• O=C(Nc1ccccc1O)c1ccc(CNC(=O)c2sccc2Nc2ccnc(C(F)(F)F)c2)cc1 = label 0
• CCCCCCCCCc1ccc(OCCOCCOCCOCCOCCOCCOCCOCCOCCO)cc1 = label 0
• Cc1cc(N2CCCCC2)cc(C)c1-c1csc(NC(=O)c2ccncc2)n1 = label 0
• c1csc(-c2ccc(CNc3c4ccccc4nc4ccccc34)cc2)c1 = label 0
• COC(=O)CC[C@@H]1O[C@@H](c2cccc(C(F)(F)F)c2)[C@@H](O)[C@H]1O = label 0
• CCCNC(=O)Nc1ccc2cc3ccc(NC(=O)NCCC)cc3nc2c1 = label 0
• CN1CCN(c2cc(Nc3cc(C4CC4)[nH]n3)nc(Nc3ccc(CC(=O)NCc4cccc(F)c4)cc3)n2)CC1 = label 0
• COc1ccc(/C=C(\C#N)n2nnc3cc(F)c(F)cc32)cc1 = label 0
• COC12C=C/C(=C(/C(=O)OCc3ccncn3)C(=O)CCCCCCCCC3(OC)C=C/C(=C(/C(=O)OCc4ccncn4)C(=O)CCCCCCCC1)O3)O2 = label 1
• COc1ccc2cc1Oc1ccc(cc1)C[C@H]1c3c(cc4c(c3Oc3cc5c(cc3OC)CCN(C)[C@@H]5C2)OCO4)CCN1C = label 0
• COc1ccc(C2CC(c3ccc(Nc4nc(Nc5ccccc5)nc(Nc5ccccc5)n4)cc3)=NN2C(C)=O)cc1 (centres undefined) = label 0
• O=C(C[C@]1(O)C(=O)Nc2ccccc21)c1cccc(C(F)(F)F)c1 = label 0
• O=C1NC(=O)C(Cc2ccc(OCc3ccc(-c4ccc(Cl)cc4Cl)cc3)cc2)S1 (centres undefined) = label 0
• C=CCn1c(SCC(=O)Nc2ccc(C(=O)/C=C/c3ccc(Cl)cc3)cc2)nnc1-c1ccc(Br)cc1 = label 0
• O=C1c2c(c3c4ccccc4[nH]c3c3ccc4ccccc4c23)C(=O)N1CCN1CCNCC1 = label 1
• N#Cc1nc(-c2ccccc2)oc1S(=O)(=O)N1CCN(c2ccccc2)CC1 = label 0

====

Test system: HS 578T breast
testName: NCI-60 one-dose screen, 48 h
condition: 10 µM unless noted
The panel holds about 83,000 compounds, 20% with a hit somewhere; the sample as a whole holds those more often. Activity calls are given as the source filed them. How the source made its calls: active means growth percent below 10; inactive means the rest.
Labels: true (1) = active, false (0) = inactive

- COc1ccc2c(c1)CC[C@H](O)/C2=C/c1cc(OC)c(OC)c(OC)c1: false (0)
- CCCCNC(=O)Oc1ccc(/C(=C(/C)Cc2ccc(OC)cc2)c2ccc(OCCN3CCCC3)cc2)cc1: false (0)
- C/C(=N\O)c1ccc(Cl)cc1: false (0)
- COc1cc(C2CC(c3ccc(Nc4nc(Nc5ccc(Cl)cc5)nc(Nc5ccc(Cl)cc5)n4)cc3)=NN2C(C)=O)cc(OC)c1OC (stereo not given): false (0)
- Cc1ccccc1/C=C/C(=O)c1cccc(OCCCOc2cccc(C(=O)/C=C/c3ccccc3C)c2)c1: false (0)
- COc1ccc(C2CC(c3ccc(Nc4nc(Nc5ccccc5)nc(Nc5ccccc5)n4)cc3)=NN2C(C)=O)cc1 (stereo not given): false (0)
- Cn1c(=O)cc2c3c(c(NCCCO)ccc31)C(=O)c1ccccc1-2: false (0)
- CCN(CC)CC(O)COc1c(Br)c(Br)c(Br)c2c1OC(C)(C)C2 (stereo not given): true (1)
- O=C(Nc1ccccc1)Nc1ncnc2c1ncn2-c1ccc(Cl)cc1: false (0)
- NC(=O)C(=O)c1ccccc1NC=O: false (0)

====

System: RPMI-8226 leukemia
testName: NCI-60 one-dose screen, 48 h (100 = growth as untreated, 0 = no growth, -100 = all killed)
condition: 10 µM unless noted
The panel holds about 83,000 compounds, 20% with a hit somewhere; the sample as a whole holds those more often.
growth for assorted compounds
measureName: growth (%)

* COC(=O)Nc1nc2ccc(S(=O)c3ccccc3)cc2[nH]1 (centres undefined) | 75.6
* CCN1C(=S)N(c2ccccc2)C2C1NN=c1s/c(=C3\C(=O)N(C(C)C)c4ccccc43)c(=O)n12 (centres undefined) | 97.4
* Nc1ncnc2c1C(c1ccc(Br)cc1)c1sc3c(F)cccc3c1O2 (centres undefined) | 100
* O=C1c2c(c3c4ccccc4[nH]c3c3ccc4ccccc4c23)C(=O)N1CCN1CCNCC1 | -35
* COc1cc2ncnc(Nc3ccc(S(=O)(=O)Nc4cc(C)on4)cc3)c2cc1OCCCN1CCN(c2ccc(F)cc2)CC1 | 114
* CCOC(=O)C/C(=N\Nc1cc(=O)[nH]c2ccc(Br)cc12)C(=O)OCC | 83.2
* CC(C)C1=NOC(=O)C1=Cc1cn(-c2ccccc2)nc1-c1ccc(F)cc1 | -17.4
* O=C(N(c1ccccc1)c1ccccc1)n1cc(I)c2nc(Cl)nc(Cl)c21 | 0.0387
* Cc1cccc(CNc2c3ccccc3nc3ccccc23)c1 | -20.4
* O=S(=O)(NCCCNc1nccc(-c2c(-c3ccc(F)c(O)c3)nc3occn23)n1)c1ccc(Cl)cc1 | 40.4
* Cc1ccc(NC(=O)c2sc3nc(C)c(Br)c(C)c3c2N)cc1 | 83.3
* O=c1[nH]c(-c2ccccc2)nc2sc3cc(O)ccc3c12 | 82.3
* CC(=O)Oc1ccc(/C(=C(\C)c2ccc(Cl)cc2)c2ccc(OCCN3CCCCC3)cc2)cc1 | 9.5
* CCCCNC(=O)Oc1ccc(/C(=C(/C)Cc2ccc(OC)cc2)c2ccc(OCCN(CC)CC)cc2)cc1 | 66.3
* C=C(C)[C@@H]1CC[C@]2(C(=O)N3CCOCC3)CC[C@]3(C)[C@H](CC[C@@H]4[C@@]5(C)C/C(=C/c6ccncc6)C(=O)C(C)(C)[C@@H]5CC[C@]43C)[C@@H]12 | 4.12
* COc1ccc(Nc2nnc(-c3ccc(OC)c(OC)c3)o2)cc1 | 92.1
* O=C(CN1C(=O)S/C(=C\c2ccccc2)C1=O)Nc1ncc(Cc2ccccc2Cl)s1 | 103
* CN(C)c1ccc(-c2c(C#N)c(N)nn2C(=O)c2ccc(NC(=O)c3ccccn3)cc2)cc1 | 95.5
* N#Cc1nc(-c2ccc(F)cc2)oc1S(=O)(=O)N1CCOCC1 | 41.2
